Value source: patent US20240261333A1

systemUnderTest: T1, B3GNT2 (Homo sapiens, UniProt Q9NY97)
T1 construct: The respective ORFs of candidate genes [CD274 (NM_014143), MCL1 (NM_021960), JUNB (NM_002229), and B3GNT2 (NM_006577)] were synthesized; expressed in transfected cells; host or cells: A375 melanoma cells (lentiviral ORF overexpression)
T1 sequence (Q9NY97 1-397): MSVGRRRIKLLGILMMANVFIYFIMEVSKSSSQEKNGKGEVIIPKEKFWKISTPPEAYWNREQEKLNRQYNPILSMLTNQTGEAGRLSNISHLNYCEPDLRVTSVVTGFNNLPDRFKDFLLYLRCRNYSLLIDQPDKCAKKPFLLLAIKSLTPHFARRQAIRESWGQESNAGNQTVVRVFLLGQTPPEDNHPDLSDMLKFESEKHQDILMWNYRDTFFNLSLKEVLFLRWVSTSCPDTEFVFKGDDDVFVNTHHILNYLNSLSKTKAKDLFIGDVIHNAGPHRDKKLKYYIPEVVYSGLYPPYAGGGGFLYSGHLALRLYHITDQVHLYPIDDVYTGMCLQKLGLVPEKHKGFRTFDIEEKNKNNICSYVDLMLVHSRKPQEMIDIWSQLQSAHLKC
methodDescription: Co-IP of FLAG-tagged B3GNT2 followed by mass spectrometry
Type: cell-based
conditionInfo: Co-IP with FLAG antibody, N-terminally FLAG-tagged B3GNT2; mass spectrometry count, unit not given
Experimental: Cells were plated in 10-cm cell culture dishes and grown to 60-80% confluency. For each condition, two biological replicates were harvested for co-IP. Cells were washed with PBS and 4 mL of lysis buffer (20 mM HEPES, 1% Triton X-100, 150 mM NaCl, 1 mM EDTA, and 10% glycerol) containing protease inhibitor cocktail was added. […] The effluent from the column was analyzed using a Thermo Orbitrap Elite mass spectrometer (nanospray configuration) operated in a data dependent manner for 54 minutes. […]
testReadout: N-term FLAG

molecule	val
HLA-A (protein) MHC heavy: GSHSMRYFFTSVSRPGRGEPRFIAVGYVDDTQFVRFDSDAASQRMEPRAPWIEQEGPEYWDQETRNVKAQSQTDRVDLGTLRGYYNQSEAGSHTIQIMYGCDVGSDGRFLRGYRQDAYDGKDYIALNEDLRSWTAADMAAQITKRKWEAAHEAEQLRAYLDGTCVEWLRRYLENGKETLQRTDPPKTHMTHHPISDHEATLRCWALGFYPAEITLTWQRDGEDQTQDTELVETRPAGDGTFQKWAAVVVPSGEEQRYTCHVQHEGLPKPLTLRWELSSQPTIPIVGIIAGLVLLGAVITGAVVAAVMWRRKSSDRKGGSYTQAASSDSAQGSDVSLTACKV	6
